Study system: activated p38 (Homo sapiens, UniProt Q16539)
Construct: amplify the coding region of CSBP2 cDNA using a HeLa cell library
Sequence (Q16539 whole entry): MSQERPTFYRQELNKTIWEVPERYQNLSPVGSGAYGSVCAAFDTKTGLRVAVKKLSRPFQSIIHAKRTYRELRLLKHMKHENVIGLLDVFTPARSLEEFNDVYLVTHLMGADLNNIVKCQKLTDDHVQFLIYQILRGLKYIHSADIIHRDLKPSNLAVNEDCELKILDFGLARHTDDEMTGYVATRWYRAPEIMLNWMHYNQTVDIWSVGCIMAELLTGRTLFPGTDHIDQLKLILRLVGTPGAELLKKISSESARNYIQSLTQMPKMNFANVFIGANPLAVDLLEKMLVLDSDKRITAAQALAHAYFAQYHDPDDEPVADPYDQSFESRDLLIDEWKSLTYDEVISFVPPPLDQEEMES
Protocol description: p38 inhibition assay: inhibition of phosphorylation of EGF receptor peptide
Run parameters: activated p38 5 nM, EGF receptor peptide 200 μM, ATP 100 μM, 30° C, 30 minutes
pIC50: −log10 of the molar value.
Quantity kind: pIC50

Below, each entry is followed by its recorded pIC50 result.
Cc1cccc(C(=O)c2ccc(N(C(=O)c3cccc(C(F)(F)F)c3)c3c(F)cccc3F)nc2)c1 ≥ 6.00
O=C(c1ccc(Nc2c(F)cccc2F)nc1)c1ccccc1Cl ≥ 6.00
CCOC(=O)C(=O)N(c1ccc(C(=O)c2cc(OC)cc(OC)c2)cn1)c1c(F)cccc1F ≥ 6.00

Entry `COc1ccc(C(=O)c2ccc(Nc3c(F)cccc3F)nc2)cc1OC` ; pIC50 = 5.00 to 6.00

Entry `O=C(c1ccc(Br)cc1)c1ccc(Nc2c(F)cccc2F)nc1` ; pIC50 = ≥ 6.00

Origin of the recorded values: patent US7271181B2
